experiment: qHTS for inhibitors of binding or entry into cells for Marburg Virus; details: Marburg virus pseudotyped entry inhibition, cell reporter; series mostly up to 37.8 µM
About 5,400 (1.8%) of roughly 300,000 compounds were called active. Not shown: some 28% with an inconclusive outcome. Calls come from the whole dose curve; tested in HEK293 cells. The full list was thinned out, with actives kept by preference.
Outcome codes: YES for active, NO for inactive

compound: O=C1CCCN1C(=O)COc1ccc([N+](=O)[O-])cc1
assignedCategory: NO

compound: COc1cccc2c1C(=O)c1c(O)c3c(c(O)c1C2=O)CC(O)(C(C)=NNC(=O)c1ccc(Cl)c(Cl)c1)CC3OC1CC(N)C(O)C(C)O1 (centres undefined)
assignedCategory: YES

compound: CC(C)(C)c1ccc(Cn2nnc3c(=O)[nH]c(C4CCCN(C(=O)c5ccco5)C4)nc32)cc1 (centres undefined)
assignedCategory: YES

compound: O=C(c1ccccc1F)N1CCC(c2nc3c(nnn3Cc3cccc(F)c3)c(=O)[nH]2)CC1
assignedCategory: NO
